Here, each record is paired with measured Emax data.
- TARGET SYSTEM: APOL1 G1 (Homo sapiens, UniProt O14791, I384M/S342G)
- EXPERIMENTAL PROTOCOL: MultiTox-Fluor Multiplex Cytotoxicity Assay, tet-inducible APOL1 G1 T-REx-HEK293 cells
- Assay type: cell-based
- Set-up: expressed in transfected cells; host or cells: T-REx HEK293, clone G1 DC3.25 (pAAVS1-Puro-APOL1 G1)
- CONDITION DETAILS: Multi-Tox Assay; APOL1 variant not given; read-out: Multi-Tox Assay Max Activity (%)
Answer in %, number only, no unit symbol.

Recorded Emax, per entry:
COMPOUND | Emax (%)
C#C[C@@H]1C[C@]2(C[C@H](C)N1)OCC(F)(F)c1cc(Cl)sc12 [Compound 223] | 93
C[C@H]1C[C@@]2(C[C@@H](c3ccc(O)nn3)N1)OCCc1cc(Cl)sc12 [Compound 86] | 99.5
Cc1ncc([C@@H]2C[C@]3(C[C@H](C)N2)OCCc2cc(Cl)sc23)o1 (racemic) [Compound 94] | 100

Now consider a different compound.
## Input Dear colleague, I am looking for the recorded Emax of the following compound: C[C@H]1C[C@@]2(C[C@@H](c3cnc(NC(C)(C)CO)nc3)N1)OCCc1cc(Cl)sc12 (racemic) [Compound 95]
## Output 99.8

* * *

- TARGET SYSTEM: APOL1 G1 (Homo sapiens, UniProt O14791, I384M/S342G)
- EXPERIMENTAL PROTOCOL: MultiTox-Fluor Multiplex Cytotoxicity Assay, tet-inducible APOL1 G1 T-REx-HEK293 cells
- Format: cell-based
- Parameters: expressed in transfected cells; host or cells: T-REx HEK293, clone G1 DC3.25 (pAAVS1-Puro-APOL1 G1)
- CONDITION DETAILS: HEK293, Multi-Tox Assay; APOL1 variant (G0/G1/G2) of the HEK293 cells not given; read-out: Multi-Tox Assay IC90
READOUT: IC90

Worked cases, IC90 given:
COMPOUND | READOUT VALUE
C[C@H]1C[C@@]2(C[C@@H](c3cn(C)nn3)N1)OC[C@H](O)c1cc(Cl)sc12 [Compound 177] | < 50 nM
C[C@H]1C[C@@]2(C[C@@H](c3cn(Cc4ccc(O)nc4)nn3)N1)OCC(F)(F)c1cc(Cl)sc12 [Compound 316] | > 500 nM
COCC(O)Cn1cc([C@@H]2C[C@]3(C[C@H](C)N2)OCC(F)(F)c2cc(Cl)sc23)nn1 (stereo partly drawn) [Compound 342] | 50 to 500 nM
C[C@H]1C[C@@]2(C[C@@H](c3cn(Cc4cccc(O)c4)nn3)N1)OCC(F)(F)c1cc(Cl)sc12 [Compound 320] | > 500 nM
C[C@H]1C[C@@]2(C[C@@H](c3ccc(=O)n(C)c3)N1)OCCc1cc(Cl)sc12 (racemic) [Compound 80] | < 50 nM

## Input // IC90 lookup, key: C[C@H]1C[C@@]2(C[C@@H](c3cn(CC4CCS(=O)(=O)C4)nn3)N1)OCC(F)(F)c1cc(Cl)sc12 (stereo partly drawn) [Compound 307]
## Output 50 to 500 nM

## Input GET /values?readout=IC90&item= C[C@H]1C[C@@]2(C[C@@H](c3ccc(O)cn3)N1)OCCc1cc(Cl)sc12 (racemic) [Compound 59]
## Output < 50 nM

## Input Give the measured IC90 of CC(C)N1CC(Cn2cc([C@@H]3C[C@]4(C[C@H](C)N3)OCC(F)(F)c3cc(Cl)sc34)nn2)CC1=O (stereo partly drawn) [Compound 327] .
## Output 50 to 500 nM

* * *

- TARGET SYSTEM: APOL1 G1 (Homo sapiens, UniProt O14791, I384M/S342G)
- Sequence (O14791 28-398 S342G/I384M): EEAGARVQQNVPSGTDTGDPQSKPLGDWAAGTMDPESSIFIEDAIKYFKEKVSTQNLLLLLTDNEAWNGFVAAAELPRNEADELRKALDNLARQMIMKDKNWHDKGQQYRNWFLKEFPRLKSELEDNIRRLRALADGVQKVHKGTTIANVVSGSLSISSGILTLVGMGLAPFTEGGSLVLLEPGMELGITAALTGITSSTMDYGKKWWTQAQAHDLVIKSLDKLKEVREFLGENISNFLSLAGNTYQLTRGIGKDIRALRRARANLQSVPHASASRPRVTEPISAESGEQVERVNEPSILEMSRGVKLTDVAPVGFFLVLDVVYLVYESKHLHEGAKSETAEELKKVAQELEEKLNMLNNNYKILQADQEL
- EXPERIMENTAL PROTOCOL: MultiTox-Fluor Multiplex Cytotoxicity Assay, tet-inducible APOL1 G1 T-REx-HEK293 cells
- Format: cell-based
- Design: expressed in transfected cells; host or cells: T-REx HEK293, clone G1 DC3.25 (pAAVS1-Puro-APOL1 G1)
- CONDITION DETAILS: Multi-Tox Assay; APOL1 variant not given; read-out: Multi-Tox Assay Max Activity (%)
compounds and their reported Emax
Note: unit % is implicit; provide only the numeric part.

Example compounds with recorded Emax:
COMPOUND | READOUT | READOUT VALUE
C[C@H]1C[C@@]2(C[C@@H](c3cccnn3)N1)OCCc1cc(Cl)sc12 (racemic) [Compound 92] | Emax | 100
C[C@H]1C[C@@]2(C[C@@H](c3ccc(N(C)C)nc3)N1)OCCc1cc(Cl)sc12 (racemic) [Compound 89] | Emax | 99.3
Clc1cc2c(s1)C1(C[C@@H](C3CC3)N[C@@H](C3CC3)C1)OCC2 (single isomer, unassigned) [Compound 206] | Emax | 99.3
CCc1cc2c(s1)C1(C[C@@H](C)N[C@@H](C)C1)OCC2 (single isomer, unassigned) [Compound 199] | Emax | 99.3
COc1ccc([C@@H]2C[C@]3(C[C@H](C)N2)OCCc2cc(Cl)sc23)cc1C#N (racemic) [Compound 62] | Emax | 99.3
Cc1cc([C@@H]2C[C@]3(C[C@H](C)N2)OCCc2cc(Cl)sc23)on1 (racemic) [Compound 66] | Emax | 99.8

## Input Which measured Emax value corresponds to Cc1ncc([C@@H]2C[C@]3(C[C@H](C)N2)OCCc2cc(Cl)sc23)cn1 (racemic) [Compound 82] ?
## Output 99.7

* * *

Measured IC90, listed per entry.
- TARGET SYSTEM: APOL1 G1 (Homo sapiens, UniProt O14791, I384M/S342G)
- EXPERIMENTAL PROTOCOL: MultiTox-Fluor Multiplex Cytotoxicity Assay, tet-inducible APOL1 G1 T-REx-HEK293 cells
- Assay type: cell-based
- Design: expressed in transfected cells; host or cells: T-REx HEK293, clone G1 DC3.25 (pAAVS1-Puro-APOL1 G1)
- CONDITION DETAILS: HEK293, Multi-Tox Assay; APOL1 variant (G0/G1/G2) of the HEK293 cells not given; read-out: Multi-Tox Assay IC90

MOLECULE | IC90
CC1CC2(CC(C3CC3(F)F)N1)OCCc1cc(Cl)sc12 (single isomer, unassigned) [Compound 212] | < 50 nM
CC1CC2(CC(c3cnn(CCS(C)(=O)=O)c3)N1)OCCc1sc(C(F)(F)F)cc12 (stereo not shown) [Compound 9] | 50 to 500 nM
COc1ccc2[nH]c([C@@H]3C[C@]4(C[C@H](C)N3)OCCc3cc(Cl)sc34)cc2n1 (racemic) [Compound 84] | < 50 nM
C[C@H]1C[C@@]2(C[C@@H](c3cn(Cc4ccccn4)nn3)N1)OC[C@@H](O)c1cc(Cl)sc12 [Compound 292] | 50 to 500 nM
Cc1nc([C@@H]2C[C@]3(C[C@H](C)N2)OCCc2cc(Cl)sc23)oc1C (racemic) [Compound 144] | > 500 nM

## Input Which IC90 reading was recorded for the molecule Cc1nc([C@@H]2C[C@]3(C[C@H](C)N2)OCCc2cc(Cl)sc23)cn1C (racemic) [Compound 159] ?
## Output > 500 nM

## Input State the recorded IC90 for this entry: CCc1c[nH]c([C@@H]2C[C@]3(C[C@H](C)N2)OCCc2cc(Cl)sc23)n1 (racemic) [Compound 153]
## Output > 500 nM

* * *

- TARGET SYSTEM: APOL1 G1 (Homo sapiens, UniProt O14791, I384M/S342G)
- Sequence (O14791 28-398 S342G/I384M): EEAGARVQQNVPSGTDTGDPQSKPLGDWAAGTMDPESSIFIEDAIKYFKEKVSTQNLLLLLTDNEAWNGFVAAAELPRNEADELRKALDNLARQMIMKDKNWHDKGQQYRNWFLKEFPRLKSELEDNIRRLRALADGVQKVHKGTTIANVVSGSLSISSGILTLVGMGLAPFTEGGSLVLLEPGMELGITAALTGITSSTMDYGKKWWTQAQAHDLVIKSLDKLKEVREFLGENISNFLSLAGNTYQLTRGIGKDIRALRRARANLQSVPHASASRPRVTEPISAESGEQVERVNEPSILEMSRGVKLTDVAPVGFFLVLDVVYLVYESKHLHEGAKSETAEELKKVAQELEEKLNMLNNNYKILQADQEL
- EXPERIMENTAL PROTOCOL: MultiTox-Fluor Multiplex Cytotoxicity Assay, tet-inducible APOL1 G1 T-REx-HEK293 cells
- Type: cell-based
- Set-up: expressed in transfected cells; host or cells: T-REx HEK293, clone G1 DC3.25 (pAAVS1-Puro-APOL1 G1)
- CONDITION DETAILS: HEK293, Multi-Tox Assay; APOL1 variant (G0/G1/G2) of the HEK293 cells not given; read-out: Multi-Tox Assay IC90
READOUT: IC90

## Input Any idea what IC90 came out for C[C@@H]1CC2(C[C@H](C)N1)OCCc1cc(Br)sc12 (single isomer, unassigned) [Compound 197] on APOL1 G1 (Homo sapiens, UniProt O14791, I384M/S342G)?
## Output 50 to 500 nM

## Input For APOL1 G1 (Homo sapiens, UniProt O14791, I384M/S342G), provide IC90 of C[C@H]1C[C@@]2(C[C@@H](c3cn(CC(O)c4ccccc4)nn3)N1)OCC(F)(F)c1cc(Cl)sc12 (stereo partly drawn) [Compound 322] please.
## Output 50 to 500 nM

## Input Please state recorded IC90 (tested on APOL1 G1 (Homo sapiens, UniProt O14791, I384M/S342G)) of Cc1cccc(OCC(O)Cn2cc([C@@H]3C[C@]4(C[C@H](C)N3)OCC(F)(F)c3cc(Cl)sc34)nn2)c1 (stereo partly drawn) [Compound 303]
## Output 50 to 500 nM

## Input What measured IC90 is associated with CCOCCn1cc([C@@H]2C[C@]3(C[C@H](C)N2)OC[C@@H](O)c2cc(Cl)sc23)nn1 [Compound 257] on APOL1 G1 (Homo sapiens, UniProt O14791, I384M/S342G)?
## Output 50 to 500 nM

## Input Could you share what IC90 was measured for CC1CC2(CC(c3ccc4c(c3)OCC(=O)N4)N1)OCCc1cc(Cl)sc12 (stereo not drawn) [Compound 39] , tested on APOL1 G1 (Homo sapiens, UniProt O14791, I384M/S342G)?
## Output < 50 nM

## Input Give the reported IC90 for C[C@H]1C[C@@]2(C[C@@H](c3cn4c(n3)COCC4)N1)OCCc1cc(Cl)sc12 (racemic) [Compound 74] (system: APOL1 G1 (Homo sapiens, UniProt O14791, I384M/S342G)).
## Output < 50 nM

## Input For APOL1 G1 (Homo sapiens, UniProt O14791, I384M/S342G), provide IC90 of C[C@H]1C[C@@]2(C[C@@H](c3cn(CC4(CO)CC4)nn3)N1)OC[C@@H](O)c1cc(Cl)sc12 [Compound 242] please.
## Output 50 to 500 nM

## Input Give IC90 (APOL1 G1 (Homo sapiens, UniProt O14791, I384M/S342G)) of the following molecule: C[C@H]1C[C@@]2(C[C@@H](c3cn(Cc4cnc5cnccn45)nn3)N1)OC[C@@H](O)c1cc(Cl)sc12 [Compound 243]
## Output 50 to 500 nM

## Input Write down the reported IC90 of C[C@@H]1CC2(C[C@H](C)N1)OCCc1cc(CC(F)F)sc12 (single isomer, unassigned) [Compound 203] , test system: APOL1 G1 (Homo sapiens, UniProt O14791, I384M/S342G).
## Output < 50 nM

## Input // lookup IC90 | system=APOL1 G1 (Homo sapiens, UniProt O14791, I384M/S342G) | key= C[C@H]1CC2(C[C@@H](c3cn(C)nn3)N1)OCC(C)(C)c1sc(C(F)(F)F)cc12 (single isomer, unassigned) [Compound 16]
## Output 50 to 500 nM

## Input Request - read-out IC90 | tested on APOL1 G1 (Homo sapiens, UniProt O14791, I384M/S342G) | molecule C#C[C@@H]1C[C@]2(C[C@H](C)N1)OCCc1cc(Cl)sc12 [Compound 221]
## Output 50 to 500 nM

## Input So what IC90 did C[C@H]1C[C@@]2(C[C@@H](c3cn(C)nn3)N1)OC[C@@H](O)c1cc(C(F)(F)F)sc12 [Compound 181] get with APOL1 G1 (Homo sapiens, UniProt O14791, I384M/S342G)?
## Output < 50 nM

## Input Which measured IC90 belongs to C[C@H]1C[C@@]2(C[C@@H](c3cn(Cc4cocn4)nn3)N1)OC[C@@H](O)c1cc(Cl)sc12 [Compound 291] , tested on APOL1 G1 (Homo sapiens, UniProt O14791, I384M/S342G)?
## Output 50 to 500 nM

## Input Give recorded IC90 with APOL1 G1 (Homo sapiens, UniProt O14791, I384M/S342G) for the following molecule: C[C@H]1C[C@@]2(C[C@@H](c3cn(CC4(F)CCOCC4)nn3)N1)OCC(F)(F)c1cc(Cl)sc12 [Compound 329]
## Output > 500 nM

## Input Could you share what IC90 was measured for C[C@H]1C[C@@]2(C[C@@H](c3cn(Cc4cncs4)nn3)N1)OC[C@@H](O)c1cc(Cl)sc12 [Compound 248] , tested on APOL1 G1 (Homo sapiens, UniProt O14791, I384M/S342G)?
## Output 50 to 500 nM
